Recorded values, source patent US20260193326A1.

Target: T1, AAV8 (adeno-associated virus 8)
T1 construct: also called adeno-associated virus serotype 8
Experiment: SPR, AAV amine-coupled to CM5 chip;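 further: nanobodies flowed as analyte at seven concentrations spanning 1–100 nM over immobilized AAV (500–800 RU), kinetic constants derived by fitting the binding curves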
Hi! Could you tag entries with koff below 0.001 s⁻¹ as y, and those at or above as n? Much appreciated.

Observe how each entry below is paired with its result.
Binder	Group Label
A4-098 (VHH) VHH: VQLQESGGGLVQPGGSLRLSCIASGSIFSINTMGWYRQAPGKQRELVATITRGGNTNYGDSVKGRFTISRDNAKNTVYLQMNTLRPEDTAVYYCHVDEIRESSWTTSNLWGQGTQVTVSS	y
A4-080 (VHH) VHH: VQLQESGGGLVQPGGSLRLSCAASGSRFSLNTMGWYRQAPGKQRELVATVTRGGSTNYADFVKGRFTISRDNAKNTVYLQMNSLRPEDTAVYYCHVDELRESGWTTSNLWGQGTQVTVSS	n
A4-073 (VHH) VHH: VQLQESGGGLVQPGGSLRLSCAASGSNFSINTMGWYRQAPGKQREMVATVTRGGSTNYGDFVKGRFTISRDNAKNTVYLQMNSLRPEDTAVYYCHVDEIRQSSWTTSNIWGQGTQVTVSS	n
A4-099 (VHH) VHH: VQLQESGGGLVQTGGSLRLSCAASGSSFSINTMGWYRQAPGKWRELVAAVTRGGDTNYAESVKGRFTISRDNGKNTVYLQMNSLRPEDTAVYYCHIDEIRESSWTTSNLWGQGTQVTVSS	y
A4-051 (VHH) VHH: VQLQESGGGLVQPGGSLRLSCAASGSSFVINTMGWYRRAPGKQRELVAAVTRGGSTNYADSVKGRFTISRDNAKNTVYLQMNSLRPEDTAVYYCHVDEVRQSSWTTSNLWGQGTQVTVSS	n
A4-086 (VHH) VHH: VQLQESGGGLVQPGGSLRLSCAASGSRFSLNTMGWYRQAPGKQRELVAAVTRGGNTNYADFVKGRFTISRDNAKNTVYLQMNSLRPEDTAVYYCHVDELRESSWTTSNLWGQGTQVTVSS	y

Problem: Threshold test, koff < 0.001 s⁻¹: A4-083 (VHH) VHH: VQLQESGGGLVQTGGSLKLSCAASGSRFSLNTMGWYRQAPRKQREFVAAVTRGGNTNYGDFVKGRFTISRDNAKNTVYLQMNSLRPEDTAVYYCHVDELRESSWTTSNLWGQGTQVTVSS
Result: n

Problem: # strict comparison: is reported koff < 0.001 s⁻¹? input = A4-066 (VHH) VHH: VQLQESGGGLVQTGGSLRLSCAASGRAFSLNTMGWYRQAPGKQRELVATVTRGGSTNYAGSVKGRFTISRDNAKNTVYLQMNSLRPEDTAVYYCHVDEVRESSWTTSNLWGQGTQVTVSS
Result: n

Problem: Is koff of A4-090 (VHH) VHH: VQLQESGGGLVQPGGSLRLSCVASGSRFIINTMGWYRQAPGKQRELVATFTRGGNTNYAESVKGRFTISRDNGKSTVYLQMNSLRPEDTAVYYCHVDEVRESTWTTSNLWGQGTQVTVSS strictly below 0.001 s⁻¹?
Result: n
